# System: HOP-18 NSCLC
# measurement notes: NCI tumour cell line growth inhibition, 48 h
Below, each of the molecules is paired with its reported TGI value.
endpoint label: TGI

[
  {
    "molecule": "CC(NC(=O)/C(C#N)=C/c1ccc2[nH]ccc2c1)c1ccccc1 (stereo unspecified)",
    "observed value": "53.3 µM"
  },
  {
    "molecule": "O=C1C(Cl)C(c2ccc(Cl)cc2)N1n1cnc2ccccc2c1=O (stereo unspecified)",
    "observed value": "> 100 µM"
  },
  {
    "molecule": "Fc1ccc(F)c(C2SCc3nc4ccccc4n32)c1 (stereo unspecified)",
    "observed value": "> 100 µM"
  },
  {
    "molecule": "COC1(OC)CC2C(=O)N(Cc3ccccc3)C1CC2S(=O)(=O)c1ccccc1 (stereo unspecified)",
    "observed value": "> 100 µM"
  },
  {
    "molecule": "C/C(=N\\NS(=O)(=O)c1ccc(C)cc1)C(CN(C)C)C(c1ccccc1)c1c(O)c2ccccc2oc1=O (stereo unspecified)",
    "observed value": "> 100 µM"
  },
  {
    "molecule": "CCc1ccccc1-n1c2nc(=O)n(C)c(=O)c-2nc2ccccc21",
    "observed value": "25 µM"
  }
]
